- target.entity: T1, human corticotrophin releasing hormone receptor type 2 (CRHR2) (human, UniProt Q13324 1-411)
- T1 sequence (looked up): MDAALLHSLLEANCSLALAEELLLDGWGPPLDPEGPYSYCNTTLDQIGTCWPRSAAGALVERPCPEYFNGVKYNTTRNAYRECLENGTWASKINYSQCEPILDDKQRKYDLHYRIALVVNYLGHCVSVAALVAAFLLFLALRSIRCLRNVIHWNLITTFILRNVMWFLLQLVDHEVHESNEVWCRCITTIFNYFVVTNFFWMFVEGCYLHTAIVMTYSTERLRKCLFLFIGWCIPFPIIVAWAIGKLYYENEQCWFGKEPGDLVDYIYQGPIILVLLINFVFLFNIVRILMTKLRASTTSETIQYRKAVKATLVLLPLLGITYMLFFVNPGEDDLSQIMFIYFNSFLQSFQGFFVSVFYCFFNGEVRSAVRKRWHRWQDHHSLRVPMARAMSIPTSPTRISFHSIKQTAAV
- test.name: cell-based or functional assay
Where no end group is shown, it is not given here.
Would you mind labelling by Log DR? At or over 0.7 log10 is Yes, under is No.

Answered examples (3):
* TKFTLSLDVPTNIMNLLFNIAKAKNLRAQAACNAHLMAQI-NH2 [Cys-variant stresscopin-like peptide SEQ ID NO: 33] | No
* TKFTLSLDVPTNCMNLLFNIAKAKNLRAQAAANAHLMAQI-NH2 [Cys-variant stresscopin-like peptide SEQ ID NO: 14] | Yes
* TKFTLSLDVPTNIMNLLFNIAKAKNCRAQAAANAHLMAQI (NES-PEG (about 20 kDa) on Cys 26; C-terminal amide (-NH2)) [Pegylated Cys-variant stresscopin-like peptide with NES linker and PEG about 20 kDa SEQ ID NO: 80] | Yes

Could you please find out whether TKFTLSLDVPTNCMNLLFNIAKAKNLRAQAAANAHLMAQI (NES-PEG (about 20 kDa) on Cys 13; C-terminal amide (-NH2)) [Pegylated Cys-variant stresscopin-like peptide with NES linker and PEG about 20 kDa SEQ ID NO: 67] has Log DR that meets 0.7 log10 or exceeds it?
Yes

# repeat for TKFTLSLDVPTNIMNLLFNIAKAKNLRAQAAANAHLMCQI-NH2 [Cys-variant stresscopin-like peptide SEQ ID NO: 39]
No
